tgt: Vascular endothelial growth factor receptor 2 (Homo sapiens, UniProt P35968)
Sequence (P35968 whole entry): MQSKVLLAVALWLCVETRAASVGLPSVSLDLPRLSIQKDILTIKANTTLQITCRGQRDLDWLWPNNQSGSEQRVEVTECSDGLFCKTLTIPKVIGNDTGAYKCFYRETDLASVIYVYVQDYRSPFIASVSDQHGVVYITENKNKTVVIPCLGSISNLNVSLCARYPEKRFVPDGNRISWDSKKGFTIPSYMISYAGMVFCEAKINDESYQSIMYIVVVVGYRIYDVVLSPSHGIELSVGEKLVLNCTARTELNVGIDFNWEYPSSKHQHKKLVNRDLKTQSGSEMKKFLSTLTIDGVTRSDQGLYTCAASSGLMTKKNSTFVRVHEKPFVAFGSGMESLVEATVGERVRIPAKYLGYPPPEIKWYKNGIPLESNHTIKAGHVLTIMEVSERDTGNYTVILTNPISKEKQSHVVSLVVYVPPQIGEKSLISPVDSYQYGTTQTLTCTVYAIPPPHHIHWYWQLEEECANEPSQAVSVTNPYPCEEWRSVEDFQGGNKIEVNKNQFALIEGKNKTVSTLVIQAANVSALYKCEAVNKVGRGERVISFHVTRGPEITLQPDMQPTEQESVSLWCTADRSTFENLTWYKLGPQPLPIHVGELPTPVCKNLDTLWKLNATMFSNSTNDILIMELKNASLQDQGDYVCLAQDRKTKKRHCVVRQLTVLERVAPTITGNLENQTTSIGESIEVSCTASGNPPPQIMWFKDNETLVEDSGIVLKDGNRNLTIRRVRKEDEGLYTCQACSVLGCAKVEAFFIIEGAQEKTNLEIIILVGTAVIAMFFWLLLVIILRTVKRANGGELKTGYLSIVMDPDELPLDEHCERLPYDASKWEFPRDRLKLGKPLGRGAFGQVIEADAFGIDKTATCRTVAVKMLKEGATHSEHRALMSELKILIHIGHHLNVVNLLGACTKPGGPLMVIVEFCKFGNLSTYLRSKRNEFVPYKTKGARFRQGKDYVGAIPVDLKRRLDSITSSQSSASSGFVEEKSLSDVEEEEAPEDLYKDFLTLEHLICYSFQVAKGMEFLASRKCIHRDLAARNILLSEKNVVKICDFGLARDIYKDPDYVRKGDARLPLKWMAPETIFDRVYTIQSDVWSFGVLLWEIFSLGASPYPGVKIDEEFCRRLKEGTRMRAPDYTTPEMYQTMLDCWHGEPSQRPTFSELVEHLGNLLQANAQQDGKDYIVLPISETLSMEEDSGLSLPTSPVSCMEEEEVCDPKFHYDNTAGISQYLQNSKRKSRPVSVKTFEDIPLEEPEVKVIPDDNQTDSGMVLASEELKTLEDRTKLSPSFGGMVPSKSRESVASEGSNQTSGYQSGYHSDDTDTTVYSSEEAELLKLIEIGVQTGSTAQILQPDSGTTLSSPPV
protocol summary: Inhibition of human VEGFR
readout type: IC50
Answer as a quantity: numeral, then unit.

## Input Which IC50 is listed for COC(=O)Nc1nc2cc(Oc3ccc(NC(=O)Nc4cc(F)ccc4C(F)(F)F)cc3)ccc2[nH]1 ?
## Output 3.5 µM

----------
Tested on: MDA-MB-231
protocol summary: Antiproliferative activity against human MDA-MB-231 cells assessed as cell growth inhibition
Format: functional, cell-based
readout type: pIC50
API: returns pIC50 as number; meaning -log10 of concentration in mol/L.

## Input Fill in the blank: the reported pIC50 of O=C(Nc1cccc(Sc2ccnc3ccsc23)c1)Nc1cccc(C(F)(F)F)c1 is ____.
## Output 5.30

----------
System: MCF7
protocol summary: Antiproliferative activity against human MCF7 cells assessed as cell growth inhibition
Type: functional, cell-based
readout type: pIC50
By convention, pIC50 is the negative base-10 log of a molar concentration.

## Input Entry O=C(Nc1cccc(Sc2ccnc3ccsc23)c1)Nc1cccc(C(F)(F)F)c1 : reported pIC50 = ?
## Output 5.92
